Below are IC50 values for Acyl-CoA: Cholesterol Acyltransferase (ACAT) (Rattus norvegicus) collected from several publications.

Q: What reported IC50 corresponds to CCC(=O)O[C@H]1CC[C@]2(C)[C@H]3Cc4c(cc(-c5cccnc5)oc4=O)O[C@]3(C)CC[C@H]2C1(C)C on Acyl-CoA: Cholesterol Acyltransferase (ACAT) (Rattus norvegicus)?
Result: 70000 to 80000 nM

Q: What reported IC50 corresponds to CCCCCC1=C(CCCCC)CC(C(=O)Nc2c(Cl)cccc2Cl)SC1 (centres unmarked) on Acyl-CoA: Cholesterol Acyltransferase (ACAT) (Rattus norvegicus)?
Result: < 2000 nM

Q: What reported IC50 corresponds to COc1ccc(C(SCc2ccc(F)cc2)C(=O)Nc2c(SC)cc(C)nc2SC)cc1OC (centres unmarked) on Acyl-CoA: Cholesterol Acyltransferase (ACAT) (Rattus norvegicus)?
Result: < 1000 nM

Q: What reported IC50 corresponds to CC(C)c1cccc(C(C)C)c1NS(=O)(=O)CC(=O)NCC(c1ccccc1)C1CCCC1 (centres unmarked) on Acyl-CoA: Cholesterol Acyltransferase (ACAT) (Rattus norvegicus)?
Result: > 1000 nM

Q: What reported IC50 corresponds to CSc1cc(C)nc(SC)c1NC(=O)C(SCc1ccccc1)c1ccc(C(F)(F)F)cc1 (centres unmarked) on Acyl-CoA: Cholesterol Acyltransferase (ACAT) (Rattus norvegicus)?
Result: < 1000 nM
